Would you kindly list GI50 for each of these compounds?
- System: OVCAR-4 ovarian
- ASSAY EXPLANATION: NCI tumour cell line growth inhibition, 48 h

So, "N#Cc1ccc(NC(=O)Nc2nc3ccc(OC(F)(F)F)cc3s2)cc1" ? Its GI50 was 1640 nM

So, "C=C1C(=O)O[C@H]2[C@H]1CC/C(Cn1cc(-c3ccsc3)nn1)=C\CC[C@@]1(C)O[C@@H]21" ? Its GI50 was 2480 nM

So, CCC1(N)C(=O)OCc2c1cc1n(c2=O)Cc2cc3ccccc3nc2-1 (stereo not given) ? Its GI50 was 38200 nM

So, "C#CCN(Cc1nc2cc(C(F)(F)F)ccc2nc1-c1ccccc1)c1ccc(F)cc1" ? Its GI50 was 33400 nM

So, "COc1ccc(-c2cc(-c3ccc(Cl)cc3)nc(SCCCCCCC(=O)NO)n2)cc1" ? Its GI50 was 2050 nM
